target: human CB2 (hCB2) receptor (Homo sapiens, UniProt P34972); construct: expressed in transfected cells; host or cells: CHO-K1; assay: Inhibition of forskolin-activated cAMP production upon activation of hCB2 (HTRF), CHO-K1 cells; assay type: cell-based; conditions: Table C-1; selectivity hCB2 over hCB1
Sequence (P34972 whole entry): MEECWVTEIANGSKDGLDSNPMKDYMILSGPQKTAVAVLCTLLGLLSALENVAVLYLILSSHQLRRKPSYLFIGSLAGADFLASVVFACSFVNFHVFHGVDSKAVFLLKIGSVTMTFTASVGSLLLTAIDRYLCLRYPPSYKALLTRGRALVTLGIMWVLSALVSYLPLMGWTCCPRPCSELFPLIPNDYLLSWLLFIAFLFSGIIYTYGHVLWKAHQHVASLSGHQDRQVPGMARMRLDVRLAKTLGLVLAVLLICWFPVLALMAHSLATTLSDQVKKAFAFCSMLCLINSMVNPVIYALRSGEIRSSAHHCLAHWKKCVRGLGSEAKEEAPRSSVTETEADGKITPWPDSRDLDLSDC
Provide the reported ratio CB2 agonism over CB1 agonism of each item.

smiles_representation | ratio CB2 agonism over CB1 agonism
CC(C)(C)c1nc2cc(S(=O)(=O)c3ccnc(F)c3)ccc2n1CC1CCC1 | >22734
CO[C@H]1CC[C@H](Cn2c(C(C)(C)C)nc3cc(S(=O)(=O)c4ccnc(F)c4)ccc32)CC1 | >2344
CC(C)(C)c1nc2cc(S(=O)(=O)c3ccnc(C(F)(F)F)c3)ccc2n1CC1CCOCC1 | >1413
CC(C)(C)c1nc2cc(S(=O)(=O)c3cc(Cl)nc(Cl)c3)ccc2n1CC1CCOCC1 | >13490
CC(C)(C)c1nc2cc(S(=O)(=O)c3ccn(/C(F)=C/I)c(=O)c3)ccc2n1CC1CCOCC1 | >3715
CC(C)(C)c1nc2cc(S(=O)(=O)c3ccnc(F)c3)ccc2n1CCC1OCCO1 | >923
CC(C)(C)c1nc2cc(S(=O)(=O)c3ccnc(/C=C/Cl)c3)ccc2n1CC1CCOCC1 | >3981

Here is another compound to look at.
What does the data say about its ratio CB2 agonism over CB1 agonism? Entry: COCCCc1cc(S(=O)(=O)c2ccc3c(c2)nc(C(C)(C)C)n3CC2CCOCC2)ccn1
>9016
